Each record here notes measured IC50.
# Assayed System: UniProt:Q08499
# Sequence (Q08499 1-518 isoform Q08499-8): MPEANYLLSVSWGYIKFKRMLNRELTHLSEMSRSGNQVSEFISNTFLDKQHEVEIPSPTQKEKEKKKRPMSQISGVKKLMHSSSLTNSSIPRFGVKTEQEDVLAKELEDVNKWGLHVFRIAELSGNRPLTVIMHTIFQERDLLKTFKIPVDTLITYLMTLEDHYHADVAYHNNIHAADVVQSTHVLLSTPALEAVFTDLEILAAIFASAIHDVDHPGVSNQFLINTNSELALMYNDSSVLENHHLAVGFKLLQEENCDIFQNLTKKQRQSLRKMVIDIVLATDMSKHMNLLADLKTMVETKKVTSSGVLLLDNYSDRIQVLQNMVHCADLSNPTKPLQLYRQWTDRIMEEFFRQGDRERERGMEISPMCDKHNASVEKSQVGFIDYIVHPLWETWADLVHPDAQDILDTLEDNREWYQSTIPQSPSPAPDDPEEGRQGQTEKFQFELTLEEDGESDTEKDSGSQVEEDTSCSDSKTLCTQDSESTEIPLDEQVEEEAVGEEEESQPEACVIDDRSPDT
# Protocol Notes: In vitro measurement of type 4 phosphodiesterase inhibition activity (hPDE-4D6, [3H]cAMP/alumina column assay)
# Measurement Parameters: recombinant hPDE-4D6 from Sf9 cell lysate, 3 uM cAMP, 12 min, room temperature; read-out: PDE4D6 IC50
Give just the number in nM; leave the unit off.

> print(dat)
                              sample.smiles  assayed.system  measurement.name  units.text  reported.result
1  O=C(O)c1ccc(N(Cc2cncs2)c2ccc(OC(F)F)c(OC(F)F)c2)cc1  UniProt:Q08499              IC50          nM             5.69
2  O=C(O)c1ccc(N(Cc2cnccn2)c2ccc(OC(F)F)c(OC(F)F)c2)cc1  UniProt:Q08499              IC50          nM              289
3  O=C(O)c1ccc(N(Cc2cnco2)c2ccc(OC(F)F)c(OC(F)F)c2)cc1  UniProt:Q08499              IC50          nM               27
4  O=C(O)Cc1cccc(N(Cc2cncnc2)c2ccc(OC(F)F)c(OC(F)F)c2)c1  UniProt:Q08499              IC50          nM               53
5  COc1ccc(N(Cc2cncnc2)c2cccc(C(=O)O)c2)cc1OC1CC1  UniProt:Q08499              IC50          nM             1.08
6  CCOc1cc(N(Cc2cnc(C)s2)c2ccc(C(=O)O)cc2)ccc1OC(F)F  UniProt:Q08499              IC50          nM             4.38

Sample COc1ccc(N(Cc2cccnn2)c2ccc(C(=O)O)cc2)cc1OC1CCCC1 ; IC50 observed: 128

Sample CCOc1cc(N(Cc2cncs2)c2ccc(C(=O)O)cc2)ccc1OC ; IC50 observed: 8.6

---

Each record here notes measured melting point.

Sample records with melting point:
> print(dat)
                                   compound  measurement.name  reported.result
1  COc1ccc(N(Cc2cncs2)c2cccc(C(=O)O)c2)cc1OC1CCCC1     melting point  65.6 to 70.6 °C
2  O=C(O)c1ccc(N(Cc2cncs2)c2ccc(OC(F)F)c(OC3CCCC3)c2)cc1     melting point  67.3 to 69.7 °C
3  CCOc1cc(N(Cc2cncs2)c2ccc(C(=O)O)cc2)ccc1OC     melting point  73.1 to 74.5 °C

Sample O=C(O)c1ccc(N(Cc2cncnc2)c2ccc(OC(F)F)c(OC(F)F)c2)cc1 ; melting point observed: 186.7 to 187.4 °C

Sample O=C(O)c1cccc(N(Cc2cnco2)c2ccc(OC(F)F)c(OCC3CC3)c2)c1 ; melting point observed: 60.2 to 61 °C

Sample COc1cc(N(Cc2cncs2)c2ccc(C(=O)O)cc2)ccc1OC(F)F ; melting point observed: 164.9 to 165.3 °C

Sample COc1ccc(N(Cc2cncs2)c2ccc(C(=O)O)cc2)cc1O[C@@H]1CCOC1 ; melting point observed: 60.3 to 60.8 °C

Sample O=C(O)c1ccc(N(Cc2cncnc2)c2ccc(OC(F)F)c(OC3CCC3)c2)cc1 ; melting point observed: 135.1 to 136.3 °C

Sample COc1ccc(N(Cc2cncnc2)c2ccc(C(=O)O)cc2)cc1OCC1CC1 ; melting point observed: 185.6 to 187.2 °C

Sample CCCCOc1cc(N(Cc2cncs2)c2ccc(C(=O)O)cc2)ccc1OC(F)F ; melting point observed: 158.7 to 159.5 °C

Sample COc1ccc(N(Cc2cccnc2)c2cccc(C3NC(=O)NC3=O)c2)cc1OC1CCCC1 (stereo not drawn) ; melting point observed: 99.7 to 105 °C

---

Each record here notes measured melting point.

Sample records with melting point:
> print(dat)
                                   compound    reported.result
1  COc1ccc(N(Cc2cncs2)c2ccc(C(=O)O)cc2)cc1OCC1CC1  128.7 to 129.4 °C
2  COc1ccc(N(Cc2cccnn2)c2cccc(C(=O)O)c2)cc1OC1CCCC1  178.9 to 184.3 °C
3  COc1ccc(N(Cc2cn[nH]c2)c2ccc(C(=O)O)cc2)cc1OC1CCCC1  108.9 to 112.3 °C
4  COc1cc(N(Cc2cccnc2)c2ccc(C(=O)O)cc2)ccc1OC(F)F [Example 14]  183.7 to 184.9 °C
5  COc1ccc(N(Cc2cnco2)c2ccc(C(=O)O)cc2)cc1OCC1CC1    160 to 161.7 °C
6  CCOc1cc(N(Cc2cnco2)c2ccc(C(=O)O)cc2)ccc1OC(F)F    111.1 to 113 °C

Continue with the next compound.
Sample COc1ccc(N(Cc2cnco2)c2ccc(C(=O)O)cc2)cc1OC1CCC1 ; melting point observed: 148 to 150.3 °C
